Test system: SK-MEL-28
Test: Antiproliferative activity against human SK-MEL-28 cells assessed as cell growth at 10 uM incubated for 48 hrs by sulforhodamine B assay relative to control
Assay type: functional
Conditions: read-out: Activity
result-type: growth at 10 µM (%)
# number only, unit % dropped from output

Solved cases below.
COc1cc(CNC(=O)CCCC/C=C/C(C)C)ccc1OCc1nnc(Nc2ccc([N+](=O)[O-])cc2)o1: 78.9
COc1cc(CNC(=O)CCCC/C=C/C(C)C)ccc1OCc1nnc(SCCc2c[nH]c3ccccc23)o1: 104
COc1cc(CNC(=O)CCCC/C=C/C(C)C)ccc1OCc1nnc(Nc2cccc(Br)c2)o1: 107

Then this compound:
Can you share its growth at 10 µM? I mean this compound: COc1cc(CNC(=O)CCCC/C=C/C(C)C)ccc1OCc1nnc(Nc2ccccc2F)o1
85.2

====

Tested on: SK-OV-3
Assay: Antiproliferative activity against human SK-OV-3 cells assessed as cell growth at 10 uM incubated for 48 hrs by sulforhodamine B assay relative to control
Assay type: functional
Conditions: read-out: Activity
Overview of reported growth at 10 µM across a group of compounds:
# number only, unit % dropped from output

Solved cases below.
COc1cc(CNC(=O)CCCC/C=C/C(C)C)ccc1OCc1nnc(SCCc2c[nH]c3ccccc23)o1: 85.7
COc1cc(CNC(=O)CCCC/C=C/C(C)C)ccc1OCc1nnc(Nc2cccc(Br)c2)o1: 82.6
COc1cc(CNC(=O)CCCC/C=C/C(C)C)ccc1OCc1nnc(Nc2ccc([N+](=O)[O-])cc2)o1: 11.8

Checklist item: growth at 10 µM tested on SK-OV-3, entry COc1cc(CNC(=O)CCCC/C=C/C(C)C)ccc1OCc1nnc(Nc2ccccc2F)o1 , value?
48.6

====

Overview of reported growth at 10 µM across a group of compounds:
System: T47D
Test: Antiproliferative activity against human T47D cells assessed as cell growth at 10 uM incubated for 48 hrs by sulforhodamine B assay relative to control
Format: functional
Conditions: read-out: Activity

Solved cases below.
COc1cc(CNC(=O)CCCC/C=C/C(C)C)ccc1OCc1nnc(Nc2cccc(Br)c2)o1: 58.9%
COc1cc(CNC(=O)CCCC/C=C/C(C)C)ccc1OCc1nnc(SCCc2c[nH]c3ccccc23)o1: 43%

Can you share its growth at 10 µM? I mean this compound: COc1cc(CNC(=O)CCCC/C=C/C(C)C)ccc1OCc1nnc(Nc2ccc([N+](=O)[O-])cc2)o1
48.6%

Can you share its growth at 10 µM? I mean this compound: COc1cc(CNC(=O)CCCC/C=C/C(C)C)ccc1OCc1nnc(Nc2ccccc2F)o1
65%

====

Overview of reported growth at 10 µM across a group of compounds:
System: LOX IMVI
Experiment: Antiproliferative activity against human LOX IMVI cells assessed as cell growth at 10 uM incubated for 48 hrs by sulforhodamine B assay relative to control
Assay type: functional
Conditions: read-out: Activity
# number only, unit % dropped from output

COc1cc(CNC(=O)CCCC/C=C/C(C)C)ccc1OCc1nnc(Nc2ccccc2F)o1: 83.4
COc1cc(CNC(=O)CCCC/C=C/C(C)C)ccc1OCc1nnc(SCCc2c[nH]c3ccccc23)o1: 55.2
COc1cc(CNC(=O)CCCC/C=C/C(C)C)ccc1OCc1nnc(Nc2cccc(Br)c2)o1: 88.9

Then this compound:
Can you share its growth at 10 µM? I mean this compound: COc1cc(CNC(=O)CCCC/C=C/C(C)C)ccc1OCc1nnc(Nc2ccc([N+](=O)[O-])cc2)o1
55.2

====

Tested on: MDA-MB-435
Experiment: Antiproliferative activity against human MDA-MB-435 cells assessed as cell growth at 10 uM incubated for 48 hrs by sulforhodamine B assay relative to control
Type: functional
Settings: read-out: Activity
result-type: growth at 10 µM (%)
# number only, unit % dropped from output

Solved cases below.
COc1cc(CNC(=O)CCCC/C=C/C(C)C)ccc1OCc1nnc(Nc2ccc([N+](=O)[O-])cc2)o1: 66.4
COc1cc(CNC(=O)CCCC/C=C/C(C)C)ccc1OCc1nnc(Nc2ccccc2F)o1: 100
COc1cc(CNC(=O)CCCC/C=C/C(C)C)ccc1OCc1nnc(SCCc2c[nH]c3ccccc23)o1: 90.2

Then this molecule:
Can you share its growth at 10 µM? I mean this molecule: COc1cc(CNC(=O)CCCC/C=C/C(C)C)ccc1OCc1nnc(Nc2cccc(Br)c2)o1
101

====

Overview of reported growth at 10 µM across a group of compounds:
Test system: UACC-257
Assay: Antiproliferative activity against human UACC-257 cells assessed as cell growth at 10 uM incubated for 48 hrs by sulforhodamine B assay relative to control
Assay type: functional
Conditions: read-out: Activity
Please don't drop the unit; write it after the number.

Solved cases below.
COc1cc(CNC(=O)CCCC/C=C/C(C)C)ccc1OCc1nnc(SCCc2c[nH]c3ccccc23)o1: 101%
COc1cc(CNC(=O)CCCC/C=C/C(C)C)ccc1OCc1nnc(Nc2ccc([N+](=O)[O-])cc2)o1: 77.6%
COc1cc(CNC(=O)CCCC/C=C/C(C)C)ccc1OCc1nnc(Nc2cccc(Br)c2)o1: 105%

Checklist item: growth at 10 µM tested on UACC-257, entry COc1cc(CNC(=O)CCCC/C=C/C(C)C)ccc1OCc1nnc(Nc2ccccc2F)o1 , value?
98.2%

====

Test system: HT-29
Assay: Antiproliferative activity against human HT-29 cells assessed as cell growth at 10 uM incubated for 48 hrs by sulforhodamine B assay relative to control
Type: functional
Conditions: read-out: Activity
result-type: growth at 10 µM (%)
# number only, unit % dropped from output

Can you share its growth at 10 µM? I mean this molecule: COc1cc(CNC(=O)CCCC/C=C/C(C)C)ccc1OCc1nnc(SCCc2c[nH]c3ccccc23)o1
69.7

Can you share its growth at 10 µM? I mean this molecule: COc1cc(CNC(=O)CCCC/C=C/C(C)C)ccc1OCc1nnc(Nc2cccc(Br)c2)o1
97.7

Can you share its growth at 10 µM? I mean this molecule: COc1cc(CNC(=O)CCCC/C=C/C(C)C)ccc1OCc1nnc(Nc2ccc([N+](=O)[O-])cc2)o1
71.7

Can you share its growth at 10 µM? I mean this molecule: COc1cc(CNC(=O)CCCC/C=C/C(C)C)ccc1OCc1nnc(Nc2ccccc2F)o1
90

====

Test system: SN12C
Assay: Antiproliferative activity against human SN12C cells assessed as cell growth at 10 uM incubated for 48 hrs by sulforhodamine B assay relative to control
Format: functional
Details: read-out: Activity
result-type: growth at 10 µM (%)
# number only, unit % dropped from output

COc1cc(CNC(=O)CCCC/C=C/C(C)C)ccc1OCc1nnc(Nc2ccccc2F)o1: 70.5
COc1cc(CNC(=O)CCCC/C=C/C(C)C)ccc1OCc1nnc(SCCc2c[nH]c3ccccc23)o1: 83.1
COc1cc(CNC(=O)CCCC/C=C/C(C)C)ccc1OCc1nnc(Nc2ccc([N+](=O)[O-])cc2)o1: 49

Can you share its growth at 10 µM? I mean this compound: COc1cc(CNC(=O)CCCC/C=C/C(C)C)ccc1OCc1nnc(Nc2cccc(Br)c2)o1
95.7

====

Tested on: IGROV-1
Test: Antiproliferative activity against human IGROV-1 cells assessed as cell growth at 10 uM incubated for 48 hrs by sulforhodamine B assay relative to control
Format: functional
Settings: read-out: Activity
result-type: growth at 10 µM
Please don't drop the unit; write it after the number.

Solved cases below.
COc1cc(CNC(=O)CCCC/C=C/C(C)C)ccc1OCc1nnc(Nc2cccc(Br)c2)o1: 92.9%
COc1cc(CNC(=O)CCCC/C=C/C(C)C)ccc1OCc1nnc(Nc2ccc([N+](=O)[O-])cc2)o1: 53.5%
COc1cc(CNC(=O)CCCC/C=C/C(C)C)ccc1OCc1nnc(Nc2ccccc2F)o1: 58.4%

Then this compound:
Can you share its growth at 10 µM? I mean this compound: COc1cc(CNC(=O)CCCC/C=C/C(C)C)ccc1OCc1nnc(SCCc2c[nH]c3ccccc23)o1
73.7%

====

Overview of reported growth at 10 µM across a group of compounds:
Test system: SF-539
Assay: Antiproliferative activity against human SF-539 cells assessed as cell growth at 10 uM incubated for 48 hrs by sulforhodamine B assay relative to control
Type: functional
Conditions: read-out: Activity
# number only, unit % dropped from output

Solved cases below.
COc1cc(CNC(=O)CCCC/C=C/C(C)C)ccc1OCc1nnc(Nc2cccc(Br)c2)o1: 88.4
COc1cc(CNC(=O)CCCC/C=C/C(C)C)ccc1OCc1nnc(SCCc2c[nH]c3ccccc23)o1: 80.8

Can you share its growth at 10 µM? I mean this compound: COc1cc(CNC(=O)CCCC/C=C/C(C)C)ccc1OCc1nnc(Nc2ccccc2F)o1
48.2

Can you share its growth at 10 µM? I mean this compound: COc1cc(CNC(=O)CCCC/C=C/C(C)C)ccc1OCc1nnc(Nc2ccc([N+](=O)[O-])cc2)o1
70.2

====

Test system: BT-549
Assay: Antiproliferative activity against human BT-549 cells assessed as cell growth at 10 uM incubated for 48 hrs by sulforhodamine B assay relative to control
Type: functional
Details: read-out: Activity
Overview of reported growth at 10 µM across a group of compounds:
# number only, unit % dropped from output

COc1cc(CNC(=O)CCCC/C=C/C(C)C)ccc1OCc1nnc(Nc2ccc([N+](=O)[O-])cc2)o1: 108
COc1cc(CNC(=O)CCCC/C=C/C(C)C)ccc1OCc1nnc(Nc2ccccc2F)o1: 77
COc1cc(CNC(=O)CCCC/C=C/C(C)C)ccc1OCc1nnc(SCCc2c[nH]c3ccccc23)o1: 75

Checklist item: growth at 10 µM tested on BT-549, entry COc1cc(CNC(=O)CCCC/C=C/C(C)C)ccc1OCc1nnc(Nc2cccc(Br)c2)o1 , value?
76.4

Data provenance is ChEMBL document CHEMBL5055675.
